# system tested: CDK12 (Homo sapiens)
# Construct: endogenous in cells; host or cells: CAL-120 human breast cancer cells (DSMZ ACC 459)
# Sequence (Q9NYV4 whole entry): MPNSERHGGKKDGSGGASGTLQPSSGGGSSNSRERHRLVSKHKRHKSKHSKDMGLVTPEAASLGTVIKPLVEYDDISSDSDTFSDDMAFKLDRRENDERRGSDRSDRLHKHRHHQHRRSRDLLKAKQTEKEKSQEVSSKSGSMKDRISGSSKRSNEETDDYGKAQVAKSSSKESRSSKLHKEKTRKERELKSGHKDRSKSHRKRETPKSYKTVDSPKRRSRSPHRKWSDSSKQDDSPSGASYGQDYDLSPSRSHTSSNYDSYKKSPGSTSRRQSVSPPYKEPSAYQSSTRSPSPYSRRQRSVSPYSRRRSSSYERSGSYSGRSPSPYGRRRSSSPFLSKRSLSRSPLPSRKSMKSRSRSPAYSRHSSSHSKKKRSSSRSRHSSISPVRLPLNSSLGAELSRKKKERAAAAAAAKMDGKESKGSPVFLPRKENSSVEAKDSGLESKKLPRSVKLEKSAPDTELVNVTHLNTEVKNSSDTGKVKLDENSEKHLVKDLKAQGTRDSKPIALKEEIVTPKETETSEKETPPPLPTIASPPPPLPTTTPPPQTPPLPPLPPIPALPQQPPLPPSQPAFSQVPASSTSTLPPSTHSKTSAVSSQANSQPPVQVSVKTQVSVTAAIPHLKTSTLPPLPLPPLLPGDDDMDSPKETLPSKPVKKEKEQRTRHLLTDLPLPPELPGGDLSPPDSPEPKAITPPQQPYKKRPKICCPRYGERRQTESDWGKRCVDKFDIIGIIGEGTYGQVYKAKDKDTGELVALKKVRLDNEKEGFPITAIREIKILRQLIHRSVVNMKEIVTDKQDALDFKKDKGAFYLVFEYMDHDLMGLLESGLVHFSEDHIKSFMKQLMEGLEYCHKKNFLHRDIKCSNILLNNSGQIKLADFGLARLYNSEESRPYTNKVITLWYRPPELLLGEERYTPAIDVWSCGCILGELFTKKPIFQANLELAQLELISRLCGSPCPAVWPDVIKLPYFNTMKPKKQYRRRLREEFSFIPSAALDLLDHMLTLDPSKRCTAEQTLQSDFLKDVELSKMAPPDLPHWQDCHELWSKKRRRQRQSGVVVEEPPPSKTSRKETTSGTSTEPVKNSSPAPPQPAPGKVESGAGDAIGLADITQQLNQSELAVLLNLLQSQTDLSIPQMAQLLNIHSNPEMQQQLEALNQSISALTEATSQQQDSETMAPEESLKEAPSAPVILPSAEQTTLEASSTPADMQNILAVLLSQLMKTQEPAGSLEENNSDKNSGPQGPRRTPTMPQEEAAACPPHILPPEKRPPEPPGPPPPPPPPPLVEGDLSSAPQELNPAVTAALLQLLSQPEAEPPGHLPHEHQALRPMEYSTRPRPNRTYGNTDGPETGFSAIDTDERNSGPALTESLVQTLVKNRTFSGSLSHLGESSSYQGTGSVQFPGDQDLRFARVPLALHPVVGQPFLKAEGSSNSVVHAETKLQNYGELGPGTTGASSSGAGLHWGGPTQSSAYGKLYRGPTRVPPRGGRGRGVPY
# Sequence (O75909 whole entry partner): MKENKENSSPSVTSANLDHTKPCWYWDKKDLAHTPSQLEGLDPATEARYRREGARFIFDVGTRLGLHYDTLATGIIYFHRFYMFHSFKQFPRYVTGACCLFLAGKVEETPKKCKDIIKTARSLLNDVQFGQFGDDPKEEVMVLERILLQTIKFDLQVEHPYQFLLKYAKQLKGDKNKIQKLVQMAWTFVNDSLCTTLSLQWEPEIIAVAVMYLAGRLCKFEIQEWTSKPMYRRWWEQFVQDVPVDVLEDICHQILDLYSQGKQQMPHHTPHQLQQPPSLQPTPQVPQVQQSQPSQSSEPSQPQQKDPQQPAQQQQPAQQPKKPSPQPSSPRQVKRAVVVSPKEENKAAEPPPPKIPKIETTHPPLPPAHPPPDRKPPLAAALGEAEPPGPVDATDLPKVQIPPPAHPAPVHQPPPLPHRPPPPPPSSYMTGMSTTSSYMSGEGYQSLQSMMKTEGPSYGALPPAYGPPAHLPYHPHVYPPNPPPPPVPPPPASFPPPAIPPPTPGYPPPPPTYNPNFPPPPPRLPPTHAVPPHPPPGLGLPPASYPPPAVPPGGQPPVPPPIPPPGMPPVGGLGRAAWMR
# assay procedure: CDK12 nuclear protein level: immunofluorescence/high content analysis in CAL-120 cells
# Type: cell-based
# experimental parameters: IC50 CDK12 hATP (Table 2) divided by DC50 CDK12 IF (Table 8)
endpoint: (IC50 CDK12 high ATP) to (Degradation DC50 CDK12) ratio

Recorded (IC50 CDK12 high ATP) to (Degradation DC50 CDK12) ratio, per entry:
chemical string	value reported
OC[C@@H]1CCCCN1c1nc(NCc2nc3ccccc3[nH]2)c2ncc(Br)n2n1	15
FC(F)(F)c1cnc2c(NCc3nc4ccccc4[nH]3)nc(N3CCOCC3)nn12	36
CN1CCN(c2nc(NCc3nc4ccccc4[nH]3)c3ncc(C(F)(F)F)n3n2)CC1	3050
N#Cc1cnc2c(NCc3nc4ccccc4[nH]3)nc(N3CCOCC3)nn12	1444

I: Brc1cnc2c(NCc3nc4ccccc4[nH]3)nc(N3CCNCC3)nn12
II: C[C@@H]1CN(c2nc(NCc3nc4c(F)c(F)ccc4[nH]3)c3ncc(C(F)(F)F)n3n2)C[C@H](C)N1
III: C[C@@H]1CN(c2nc(NCc3nc4ccccc4[nH]3)c3ncc(C(F)(F)F)n3n2)C[C@H](C)N1.O=CO
IV: COc1cccc2[nH]c(CNc3nc(N4C[C@@H](C)N[C@@H](C)C4)nn4c(Br)cnc34)nc12
Task: Output the entries ranked by (IC50 CDK12 high ATP) to (Degradation DC50 CDK12) ratio from maximum down to minimum. Write out the labels following the order that was asked for.
Output: I, IV, III, II
(I: 10707, IV: 4066, III: 2691, II: 177)

1: CN1CCN(c2nc(NCc3nc4c(F)cccc4[nH]3)c3ncc(Br)n3n2)CC1
2: COc1cccc2[nH]c(CNc3nc(N4CCN(C)CC4)nn4c(Br)cnc34)nc12.O=CO
3: Fc1ccc2[nH]c(CNc3nc(N4CCOCC4)nn4c(C(F)(F)F)cnc34)nc2c1F
4: Fc1cccc2[nH]c(CNc3nc(N4CCNCC4)nn4c(Br)cnc34)nc12
Task: List the 4 entries from lowest (IC50 CDK12 high ATP) to (Degradation DC50 CDK12) ratio to highest (IC50 CDK12 high ATP) to (Degradation DC50 CDK12) ratio value. Write out the labels following the order that was asked for.
Output: 3, 4, 1, 2

1: CN1CCN(c2nc(NCc3nc4cc(F)ccc4[nH]3)c3ncc(Br)n3n2)CC1
2: COc1cccc2[nH]c(CNc3nc(N4CCNCC4)nn4c(Br)cnc34)nc12
3: CN(CC(C)(C)O)c1nc(NCc2nc3ccccc3[nH]2)c2ncc(C(F)(F)F)n2n1
4: C[C@@H]1CN(c2nc(NCc3nc4ccccc4[nH]3)c3ncc(Br)n3n2)C[C@H](C)O1
Task: List the 4 entries from lowest (IC50 CDK12 high ATP) to (Degradation DC50 CDK12) ratio to highest (IC50 CDK12 high ATP) to (Degradation DC50 CDK12) ratio value. Write out the labels following the order that was asked for.
Output: 3, 4, 2, 1
(3: 12, 4: 76, 2: 1790, 1: 5916)
